Consider the following compounds; for each one, report its AUC.
assay: Mouse pharmacokinetics; type: in vivo, ICR mice; conditions: ICR, mouse, plasma, po, 10 mg/kg, Mouse i.g. 10 mpk; read-out: AUC
Give bare numbers, in ng·h/mL.

Check out these entries, answers already filled in.
Hello, please tell me recorded AUC for this one: NC(=O)c1ncc(N2CCCCC2)nc1Nc1ccc(C2CCN(C3Cc4ccc5c(C6CCC(=O)NC6=O)noc5c4C3)CC2)cc1 (stereo not drawn)
41400

Hello, please tell me recorded AUC for this one: CN1CCN([C@@H]2CCCN(c3cnc(C(N)=O)c(Nc4ccc(N5CCC(CN6CCc7ccc8c(C9CCC(=O)NC9=O)noc8c7CC6)CC5)cc4)n3)C2)C1=O (stereo partly drawn)
7690

Hello, please tell me recorded AUC for this one: CN1CCN([C@@H]2CCCN(c3cnc(C(N)=O)c(Nc4ccc(C5CCN(CC6CN(c7ccc8c(C9CCC(=O)NC9=O)noc8c7)C6)CC5)cc4)n3)C2)C1=O (stereo partly drawn)
13700

Hello, please tell me recorded AUC for this one: CN1CCN([C@@H]2CCCN(c3cnc(C(N)=O)c(Nc4ccc(C5CCN(C6CN(c7ccc8c(C9CCC(=O)NC9=O)noc8c7)C6)CC5)cc4)n3)C2)C1=O (stereo partly drawn)
35600

Hello, please tell me recorded AUC for this one: NC(=O)c1ncc(N2CCCCC2)nc1Nc1ccc(N2CCC(CN3CCc4ccc5c(C6CCC(=O)NC6=O)noc5c4CC3)CC2)cc1 (stereo not drawn)
8300

Could you now consider this next compound?
Hello, please tell me recorded AUC for this one: CN1CCN([C@@H]2CCCN(c3cnc(C(N)=O)c(Nc4ccc(C5CCN(CC6Cc7ccc8c(C9CCC(=O)NC9=O)noc8c7C6)CC5)cc4)n3)C2)C1=O (stereo partly drawn)
23700
